# polymerase ribozyme fitness (log ratio) per entry
B1: TPR t1 (parent)
chain: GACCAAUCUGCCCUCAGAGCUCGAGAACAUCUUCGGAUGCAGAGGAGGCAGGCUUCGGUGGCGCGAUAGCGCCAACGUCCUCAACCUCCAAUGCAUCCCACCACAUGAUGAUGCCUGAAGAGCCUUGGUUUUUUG

- Variants of: B1
- Assay comment: polymerase ribozyme fitness, log enrichment relative to wild type (log ratio); higher = more active; in vitro selection for triplet polymerase activity
Reported property: polymerase ribozyme fitness (log ratio)

>>> readout_number("U55G G93A G117U")
-3.04
>>> readout_number("C40U G42A G63C U125G")
-2.99
>>> readout_number("A16U A18U")
-3.06
>>> readout_number("A50U G117C")
-2.96
>>> readout_number("C13A C115U")
-3.06
